- TESTED SYSTEM: mGlyT-1b (Mus musculus, UniProt P28571)
- Sequence (P28571 1-651 isoform P28571-2): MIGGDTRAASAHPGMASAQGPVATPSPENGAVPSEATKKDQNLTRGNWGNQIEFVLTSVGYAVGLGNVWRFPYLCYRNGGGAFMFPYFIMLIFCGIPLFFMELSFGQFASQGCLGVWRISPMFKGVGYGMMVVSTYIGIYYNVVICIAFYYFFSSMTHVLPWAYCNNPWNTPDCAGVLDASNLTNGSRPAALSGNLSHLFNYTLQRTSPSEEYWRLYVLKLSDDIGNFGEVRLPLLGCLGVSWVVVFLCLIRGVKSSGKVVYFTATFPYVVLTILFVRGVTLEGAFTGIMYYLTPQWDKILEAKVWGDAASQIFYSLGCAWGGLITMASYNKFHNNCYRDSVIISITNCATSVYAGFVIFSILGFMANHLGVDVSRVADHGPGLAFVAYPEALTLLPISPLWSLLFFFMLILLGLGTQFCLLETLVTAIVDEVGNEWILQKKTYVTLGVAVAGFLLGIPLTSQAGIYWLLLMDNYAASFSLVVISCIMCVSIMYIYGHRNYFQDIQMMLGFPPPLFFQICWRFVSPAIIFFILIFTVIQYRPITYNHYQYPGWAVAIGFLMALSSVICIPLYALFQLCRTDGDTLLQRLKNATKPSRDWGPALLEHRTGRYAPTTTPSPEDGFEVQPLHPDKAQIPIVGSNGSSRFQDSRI
- PROCEDURE SUMMARY: Glycine uptake inhibition assay (mGlyT-1b)
- CONDITION DESCRIPTION: [3H]-glycine uptake in Flp-In CHO cells transfected with mGlyT-1b cDNA
pIC50: −log10 of the molar value.
MEASUREMENT KIND: pIC50

Some solved entries appear below for comparison.
- MOLECULE: "COc1cc(C(F)(F)F)cc(SC)c1C(=O)N[C@]1(c2ccccc2)CCCN2CCC[C@@H]21 (racemic) [Example 2]"
  TESTED SYSTEM: "mGlyT-1b (Mus musculus, UniProt P28571)"
  MEASUREMENT KIND: "pIC50"
  OBSERVED VALUE: 7.60
- MOLECULE: "COc1cc(C(F)(F)F)cc(SC)c1C(=O)NC1(c2ccccc2)CCC2CCCCN2C1 (centres unmarked) [Example 5]"
  TESTED SYSTEM: "mGlyT-1b (Mus musculus, UniProt P28571)"
  MEASUREMENT KIND: "pIC50"
  OBSERVED VALUE: 7.55
- MOLECULE: "COc1cc(C(F)(F)F)cc(SC)c1C(=O)NC1(c2ccccc2)CCC2CCCN2C1 (single isomer, unassigned; diastereoisomer 2) [Example 4]"
  TESTED SYSTEM: "mGlyT-1b (Mus musculus, UniProt P28571)"
  MEASUREMENT KIND: "pIC50"
  OBSERVED VALUE: 7.89

a: COc1cc(C(F)(F)F)cc(SC)c1C(=O)NC1(c2ccccc2)CCC2CCCN2C1 (single isomer, unassigned; diastereoisomer 1) [Example 3]
b: COc1cc(C(F)(F)F)cc(SC)c1C(=O)N[C@]1(c2ccccc2)CCCN2CCCC[C@@H]21 (racemic) [Example 1]
Which value of pIC50 is smaller, the one for a or the one for b ? Answer by quoting the chosen item's label.
b
(b: 7.10, a: 7.77)
